- system_under_test: T1, human MASP-2 protein (recombinant, full-length, C-terminal tag) (human, UniProt O00187 16-686)
- T1 construct: The protein was secreted and purified on an anti-FLAG or anti-HIS column; also called hMASP-2; Full-length human MASP-2 protein; not shown: C-terminal HIS-tag or FLAG-tag
- procedure_text: BLI (ForteBio Octet RED96), antibody on Protein A biosensor, human MASP-2 in solution (100, 50, 25 nM)
readout_kind: kon (M⁻¹ s⁻¹)
Response body: numeric value in M⁻¹ s⁻¹, unit text excluded.

Answered cases to consult:
INSERT INTO measurements (binder, readout_kind, observed_value) VALUES
  ('129C10 HcLa (antibody, human IgG4, V domains shown, Humanized) VH: QVQLVQSGAEVKKPGASVKVSCKASGYTFTDYYINWVRQAPGQGLEWMGWIFPGSESAYHSQKFQGRVTMTVDTSISTAYMELSRLRSDDTAVYYCTRGDRSGPFAYWGQGTLVTVSS VL: DVVMTQSPLSLPVTLGQPASISCKSSQSLLYSNGKTYLNWLQQRPGQSPRRLIYLVSKLDSGVPDRFSGSGSGTDFTLKISRVEAEDVGVYYCVQVTHFPFTFGQGTKLEIK', 'kon', 35200),
  ('129C10 HbLb (antibody, human IgG4, V domains shown, Humanized) VH: QVQLVQSGAEVKKPGASVKVSCKASGYTFTDYYINWVRQAPGQGLEWMGWIFPGSESAYHSEKFKARATLTVDTSISTAYMELSRLRSDDTAVYYCTRGDRSGPFAYWGQGTLVTVSS VL: DVVMTQSPLSLPVTLGQPASISCKSSQSLLYSNGKTYLNWLQQRPGQSPRRLIYLVSKLDSGVPDRFSGSGSGADFTLKISRVEAEDVGVYYCVQVTHFPFTFGQGTKLEIK', 'kon', 32900);

Exam item: Look at this binder and give its reported kon. 129C10 HdLa (antibody, human IgG4, V domains shown, Humanized) VH: QVQLVQSGAEVKKPGASVKVSCKASGYTFTDYYINWVRQAPGQGLEWMGWIFPGSESAYHSQKFQGRATLTVDTSISTAYMELSRLRSDDTAVYYCTRGDRSGPFAYWGQGTLVTVSS VL: DVVMTQSPLSLPVTLGQPASISCKSSQSLLYSNGKTYLNWLQQRPGQSPRRLIYLVSKLDSGVPDRFSGSGSGTDFTLKISRVEAEDVGVYYCVQVTHFPFTFGQGTKLEIK
Marked response: 24900

All values here come from patent US20240309113A1.
